Where do these numbers come from? They come from the supplement of paper PMC5998384.

Tested on: HeLa Kyoto
Experiment: solubility in G1/S (NP-40 vs SDS abundance) (log2 ratio); higher = more soluble
Details: cell cycle stage: G1/S
reported.endpoint: solubility in G1/S (log2)
Numbers only.

So what does the record say about solubility in G1/S (log2) for MFSSVAHLARANPFNTPHLQLVHDGLGDLRSSSPGPTGQPRRPRNLAAAAVEEQYSCDYGSGRFFILCGLGGIISCGTTHTALVPLDLVKCRMQVDPQKYKGIFNGFSVTLKEDGVRGLAKGWAPTFLGYSMQGLCKFGFYEVFKVLYSNMLGEENTYLWRTSLYLAASASAEFFADIALAPMEAAKVRIQTQPGYANTLRDAAPKMYKEEGLKAFYKGVAPLWMRQIPYTMMKFACFERTVEALYKFVVPKPRSECSKPEQLVVTFVAGYIAGVFCAIVSHPADSVVSVLNKEKGSSASLVLKRLGFKGVWKGLFARIIMIGTLTALQWFIYDSVKVYFRLPRPPPPEMPESLKKKLGLTQ [SLC25A3] ?
-0.0671

* * *

Tested on: HeLa Kyoto
Assay: melting temperature (median over replicates), in situ; higher = more thermally stable
Conditions: cell cycle stage: G1/S
reported.endpoint: melting temperature
Answer format reminder: number followed by unit.

Reference set (3 entries):
MTSFRLALIQLQISSIKSDNVTRACSFIREAATQGAKIVSLPECFNSPYGAKYFPEYAEKIPGESTQKLSEVAKECSIYLIGGSIPEEDAGKLYNTCAVFGPDGTLLAKYRKIHLFDIDVPGKITFQESKTLSPGDSFSTFDTPYCRVGLGICYDMRFAELAQIYAQRGCQLLVYPGAFNLTTGPAHWELLQRSRAVDNQVYVATASPARDDKASYVAWGHSTVVNPWGEVLAKAGTEEAIVYSDIDLKKLAEIRQQIPVFRQKRSDLYAVEMKKP [NIT2] : 54.5 °C
MLGAWAVEGTAVALLRLLLLLLPPAIRGPGLGVAGVAGAAGAGLPESVIWAVNAGGEAHVDVHGIHFRKDPLEGRVGRASDYGMKLPILRSNPEDQILYQTERYNEETFGYEVPIKEEGDYVLVLKFAEVYFAQSQQKVFDVRLNGHVVVKDLDIFDRVGHSTAHDEIIPMSIRKGKLSVQGEVSTFTGKLYIEFVKGYYDNPKVCALYIMAGTVDDVPKLQPHPGLEKKEEEEEEEEYDEGSNLKKQTNKNRVQSGPRTPNPYASDNSSLMFPILVAFGVFIPTLFCLCRL [MLEC] : 53.7 °C
MAKTYDYLFKLLLIGDSGVGKTCVLFRFSEDAFNSTFISTIGIDFKIRTIELDGKRIKLQIWDTAGQERFRTITTAYYRGAMGIMLVYDITNEKSFDNIRNWIRNIEEHASADVEKMILGNKCDVNDKRQVSKERGEKLALDYGIKFMETSAKANINVENAFFTLARDIKAKMDKKLEGNSPQGSNQGVKITPDQQKRSSFFRCVLL [RAB8A] : 56.7 °C

// for each sequence below, give its melting temperature
1. MARYEEVSVSGFEEFHRAVEQHNGKTIFAYFTGSKDAGGKSWCPDCVQAEPVVREGLKHISEGCVFIYCQVGEKPYWKDPNNDFRKNLKVTAVPTLLKYGTPQKLVESECLQANLVEMLFSED [TXNDC17]
2. MVLLKEYRVILPVSVDEYQVGQLYSVAEASKNETGGGEGVEVLVNEPYEKDGEKGQYTHKIYHLQSKVPTFVRMLAPEGALNIHEKAWNAYPYCRTVITNEYMKEDFLIKIETWHKPDLGTQENVHKLEPEAWKHVEAVYIDIADRSQVLSKDYKAEEDPAKFKSIKTGRGPLGPNWKQELVNQKDCPYMCAYKLVTVKFKWWGLQNKVENFIHKQERRLFTNFHRQLFCWLDKWVDLTMDDIRRMEEETKRQLDEMRQKDPVKGMTADD [PITPNA]

["50.8 °C", "54.9 °C"]

// for each sequence below, give its melting temperature
1. MASSSGSKAEFIVGGKYKLVRKIGSGSFGDIYLAINITNGEEVAVKLESQKARHPQLLYESKLYKILQGGVGIPHIRWYGQEKDYNVLVMDLLGPSLEDLFNFCSRRFTMKTVLMLADQMISRIEYVHTKNFIHRDIKPDNFLMGIGRHCNKLFLIDFGLAKKYRDNRTRQHIPYREDKNLTGTARYASINAHLGIEQSRRDDMESLGYVLMYFNRTSLPWQGLKAATKKQKYEKISEKKMSTPVEVLCKGFPAEFAMYLNYCRGLRFEEAPDYMYLRQLFRILFRTLNHQYDYTFDWTMLKQKAAQQAASSSGQGQQAQTPTGKQTDKTKSNMKGF [CSNK1A1]
2. MSSTLAKIAEIEAEMARTQKNKATAHHLGLLKARLAKLRRELITPKGGGGGGPGEGFDVAKTGDARIGFVGFPSVGKSTLLSNLAGVYSEVAAYEFTTLTTVPGVIRYKGAKIQLLDLPGIIEGAKDGKGRGRQVIAVARTCNLILIVLDVLKPLGHKKIIENELEGFGIRLNSKPPNIGFKKKDKGGINLTATCPQSELDAETVKSILAEYKIHNADVTLRSDATADDLIDVVEGNRVYIPCIYVLNKIDQISIEELDIIYKVPHCVPISAHHRWNFDDLLEKIWDYLKLVRIYTKPKGQLPDYTSPVVLPYSRTTVEDFCMKIHKNLIKEFKYALVWGLSVKHNPQKVGKDHTLEDEDVIQIVKK [DRG1]
3. MSQATKRKHVVKEVLGEHIVPSDQQQIVRVLRTPGNNLHEVETAQGQRFLVSMPSKYRKNIWIKRGDFLIVDPIEEGEKVKAEISFVLCKDHVRSLQKEGFWPEAFSEVAEKHNNRNRQTQPELPAEPQLSGEESSSEDDSDLFVNTNRRQYHESEEESEEEEAA [EIF1AD]
4. MAAGVDCGDGVGARQHVFLVSEYLKDASKKMKNGLMFVKLVNPCSGEGAIYLFNMCLQQLFEVKVFKEKHHSWFINQSVQSGGLLHFATPVDPLFLLLHYLIKADKEGKFQPLDQVVVDNVFPNCILLLKLPGLEKLLHHVTEEKGNPEIDNKKYYKYSKEKTLKWLEKKVNQTVAALKTNNVNVSSRVQSTAFFSGDQASTDKEEDYIRYAHGLISDYIPKELSDDLSKYLKLPEPSASLPNPPSKKIKLSDEPVEAKEDYTKFNTKDLKTEKKNSKMTAAQKALAKVDKSGMKSIDTFFGVKNKKKIGKV [RNASEH2B]
5. MCAARLAAAAAAAQSVYAFSARPLAGGEPVSLGSLRGKVLLIENVASLUGTTVRDYTQMNELQRRLGPRGLVVLGFPCNQFGHQENAKNEEILNSLKYVRPGGGFEPNFMLFEKCEVNGAGAHPLFAFLREALPAPSDDATALMTDPKLITWSPVCRNDVAWNFEKFLVGPDGVPLRRYSRRFQTIDIEPDIEALLSQGPSCA [GPX1]
6. MGFGDLKSPAGLQVLNDYLADKSYIEGYVPSQADVAVFEAVSSPPPADLCHALRWYNHIKSYEKEKASLPGVKKALGKYGPADVEDTTGSGATDSKDDDDIDLFGSDDEEESEEAKRLREERLAQYESKKAKKPALVAKSSILLDVKPWDDETDMAKLEECVRSIQADGLVWGSSKLVPVGYGIKKLQIQCVVEDDKVGTDMLEEQITAFEDYVQSMDVAAFNKI [EEF1B2]

49.6 °C
53.8 °C
53.5 °C
48.8 °C
56.8 °C
50.7 °C
